- target.system: T1, human serum albumin (HSA), full length (human, UniProt P02768 25-609)
- T1 construct: mature; Immobilized on CM5 chip (SPR) or coated on plates (ELISA)
- T1 sequence (P02768 25-609): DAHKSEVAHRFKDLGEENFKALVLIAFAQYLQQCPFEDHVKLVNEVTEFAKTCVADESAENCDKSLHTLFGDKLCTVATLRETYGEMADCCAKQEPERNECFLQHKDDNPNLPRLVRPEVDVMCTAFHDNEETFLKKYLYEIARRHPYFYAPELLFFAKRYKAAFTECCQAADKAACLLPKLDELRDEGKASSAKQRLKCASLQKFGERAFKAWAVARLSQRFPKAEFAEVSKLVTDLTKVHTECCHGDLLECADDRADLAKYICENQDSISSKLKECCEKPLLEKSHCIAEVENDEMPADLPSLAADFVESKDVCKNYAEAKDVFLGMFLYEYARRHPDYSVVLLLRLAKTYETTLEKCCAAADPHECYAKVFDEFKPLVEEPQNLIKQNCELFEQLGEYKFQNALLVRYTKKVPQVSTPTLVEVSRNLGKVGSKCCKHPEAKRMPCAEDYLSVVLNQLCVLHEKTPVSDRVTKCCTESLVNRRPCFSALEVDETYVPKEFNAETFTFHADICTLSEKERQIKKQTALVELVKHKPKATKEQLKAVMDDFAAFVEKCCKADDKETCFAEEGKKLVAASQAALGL
- experiment.description: SPR kinetics, immobilized albumin, 1:1 fit, 37 C
measured.parameter: Kd

Given the binder ADX_7016_C03 (Y44Q) (designed binder, Full His6-tagged entry; also called 6727_B03) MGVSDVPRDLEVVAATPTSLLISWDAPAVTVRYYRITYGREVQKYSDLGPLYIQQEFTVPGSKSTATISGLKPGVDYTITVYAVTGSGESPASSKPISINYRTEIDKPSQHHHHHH , what is its reported Kd?
889 nM

What do we get for ADX_7016_G01 (Y44S) (designed binder, Full His6-tagged entry; also called 6727_G02) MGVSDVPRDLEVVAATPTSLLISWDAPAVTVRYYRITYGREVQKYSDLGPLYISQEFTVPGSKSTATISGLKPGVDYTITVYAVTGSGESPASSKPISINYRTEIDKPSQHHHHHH ?
83.7 nM

Please answer likewise for ADX_7016_A01 (parent PKE2 Adnectin) (designed binder, N-terminal Met may be cleaved; also called 2629_E06; ADX_2629_E06) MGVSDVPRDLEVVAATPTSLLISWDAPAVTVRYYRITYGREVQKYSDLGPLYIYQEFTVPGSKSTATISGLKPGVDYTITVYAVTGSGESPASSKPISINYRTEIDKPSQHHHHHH
6.2 nM

Subsequent entry: ADX_7016_E02 (L38T) (designed binder, Full His6-tagged entry; also called 6727_E08) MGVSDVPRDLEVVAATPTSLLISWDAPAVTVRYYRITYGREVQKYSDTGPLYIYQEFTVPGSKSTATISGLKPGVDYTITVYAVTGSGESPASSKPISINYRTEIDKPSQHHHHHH
666 nM
